system-tested: T1, human GM-CSFRα, full length on cells (human, UniProt P15509 23-400)
T1 sequence: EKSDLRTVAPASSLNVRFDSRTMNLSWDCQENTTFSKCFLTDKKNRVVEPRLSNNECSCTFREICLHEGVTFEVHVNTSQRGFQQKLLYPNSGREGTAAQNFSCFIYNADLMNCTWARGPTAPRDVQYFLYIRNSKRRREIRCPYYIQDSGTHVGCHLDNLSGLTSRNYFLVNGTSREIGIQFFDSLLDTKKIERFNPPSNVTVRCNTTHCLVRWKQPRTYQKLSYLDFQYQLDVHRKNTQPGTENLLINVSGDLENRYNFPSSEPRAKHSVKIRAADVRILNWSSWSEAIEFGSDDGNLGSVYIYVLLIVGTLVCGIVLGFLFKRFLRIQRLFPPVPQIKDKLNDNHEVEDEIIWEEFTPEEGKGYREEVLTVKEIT
procedure-text: cell-based or functional assay
Use IC50, TF-1 cell proliferation to assign classes; range list: bin 0: < 0.1 µg/mL; bin 1: ≥ 0.1 µg/mL and < 0.2 µg/mL; bin 2: ≥ 0.2 µg/mL

[[record]]
binder = "E35-scFv HT28M (scFv, V domains shown) VH: QMQLVQSGAEVKKPGASVKVSCKVSGYMLTELSIHWVRQAPGKGLEWMGGFDPEDGETIYAQKFQGRVTMTGDTSTDTAYLELSSLRSEDTALYYCATGRYTSLATTYGFDYWGQGTLVTVSS VL: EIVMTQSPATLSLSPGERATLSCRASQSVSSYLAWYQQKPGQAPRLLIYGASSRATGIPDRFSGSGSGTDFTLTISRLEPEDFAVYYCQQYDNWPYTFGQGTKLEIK"
class_label = "bin 1"

[[record]]
binder = "E35-scFv LD92P (scFv, V domains shown) VH: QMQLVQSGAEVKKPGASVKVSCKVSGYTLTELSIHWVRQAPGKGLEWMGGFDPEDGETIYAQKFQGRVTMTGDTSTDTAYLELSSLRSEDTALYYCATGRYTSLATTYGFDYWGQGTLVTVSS VL: EIVMTQSPATLSLSPGERATLSCRASQSVSSYLAWYQQKPGQAPRLLIYGASSRATGIPDRFSGSGSGTDFTLTISRLEPEDFAVYYCQQYPNWPYTFGQGTKLEIK"
class_label = "bin 2"

[[record]]
binder = "E35-scFv HT30Q (scFv, V domains shown) VH: QMQLVQSGAEVKKPGASVKVSCKVSGYTLQELSIHWVRQAPGKGLEWMGGFDPEDGETIYAQKFQGRVTMTGDTSTDTAYLELSSLRSEDTALYYCATGRYTSLATTYGFDYWGQGTLVTVSS VL: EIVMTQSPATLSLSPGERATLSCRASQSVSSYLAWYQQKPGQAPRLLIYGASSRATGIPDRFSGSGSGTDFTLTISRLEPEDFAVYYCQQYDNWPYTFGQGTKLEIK"
class_label = "bin 1"

[[record]]
binder = "E35-scFv HT30P (scFv, V domains shown) VH: QMQLVQSGAEVKKPGASVKVSCKVSGYTLPELSIHWVRQAPGKGLEWMGGFDPEDGETIYAQKFQGRVTMTGDTSTDTAYLELSSLRSEDTALYYCATGRYTSLATTYGFDYWGQGTLVTVSS VL: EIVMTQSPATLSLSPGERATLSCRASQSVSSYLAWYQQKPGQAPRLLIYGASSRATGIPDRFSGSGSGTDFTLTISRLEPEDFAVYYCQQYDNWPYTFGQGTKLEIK"
class_label = "bin 1"

[[record]]
binder = "E35-scFv HT30V (scFv, V domains shown) VH: QMQLVQSGAEVKKPGASVKVSCKVSGYTLVELSIHWVRQAPGKGLEWMGGFDPEDGETIYAQKFQGRVTMTGDTSTDTAYLELSSLRSEDTALYYCATGRYTSLATTYGFDYWGQGTLVTVSS VL: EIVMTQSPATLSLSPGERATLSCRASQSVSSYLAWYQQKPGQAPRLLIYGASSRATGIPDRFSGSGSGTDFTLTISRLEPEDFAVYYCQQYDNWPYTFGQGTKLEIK"
class_label = "bin 1"

[[record]]
binder = "E35-scFv LS31E (scFv, V domains shown) VH: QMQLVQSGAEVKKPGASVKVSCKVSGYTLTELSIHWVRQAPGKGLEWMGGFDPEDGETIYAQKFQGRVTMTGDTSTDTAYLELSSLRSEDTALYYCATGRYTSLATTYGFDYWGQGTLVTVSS VL: EIVMTQSPATLSLSPGERATLSCRASQSVSEYLAWYQQKPGQAPRLLIYGASSRATGIPDRFSGSGSGTDFTLTISRLEPEDFAVYYCQQYDNWPYTFGQGTKLEIK"
class_label = "bin 2"

[[record]]
binder = "E35-scFv LS28L (scFv, V domains shown) VH: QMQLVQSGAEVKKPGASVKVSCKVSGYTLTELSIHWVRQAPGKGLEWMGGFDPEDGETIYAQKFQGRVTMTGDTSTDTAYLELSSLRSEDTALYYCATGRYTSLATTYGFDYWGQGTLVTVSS VL: EIVMTQSPATLSLSPGERATLSCRASQLVSSYLAWYQQKPGQAPRLLIYGASSRATGIPDRFSGSGSGTDFTLTISRLEPEDFAVYYCQQYDNWPYTFGQGTKLEIK"
class_label = "bin 0"

[[record]]
binder = "E35-scFv LA51T (scFv, V domains shown) VH: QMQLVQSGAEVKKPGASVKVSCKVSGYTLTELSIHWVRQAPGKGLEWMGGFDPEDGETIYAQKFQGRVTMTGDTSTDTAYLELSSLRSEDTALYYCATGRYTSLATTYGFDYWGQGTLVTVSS VL: EIVMTQSPATLSLSPGERATLSCRASQSVSSYLAWYQQKPGQAPRLLIYGTSSRATGIPDRFSGSGSGTDFTLTISRLEPEDFAVYYCQQYDNWPYTFGQGTKLEIK"
class_label = "bin 1"

[[record]]
binder = "E35-scFv LS31R (scFv, V domains shown) VH: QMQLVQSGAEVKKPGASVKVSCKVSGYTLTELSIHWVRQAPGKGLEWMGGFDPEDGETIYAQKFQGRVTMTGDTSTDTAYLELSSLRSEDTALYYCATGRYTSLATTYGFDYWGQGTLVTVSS VL: EIVMTQSPATLSLSPGERATLSCRASQSVSRYLAWYQQKPGQAPRLLIYGASSRATGIPDRFSGSGSGTDFTLTISRLEPEDFAVYYCQQYDNWPYTFGQGTKLEIK"
class_label = "bin 0"

[[record]]
binder = "E35-scFv LS52Q (scFv, V domains shown) VH: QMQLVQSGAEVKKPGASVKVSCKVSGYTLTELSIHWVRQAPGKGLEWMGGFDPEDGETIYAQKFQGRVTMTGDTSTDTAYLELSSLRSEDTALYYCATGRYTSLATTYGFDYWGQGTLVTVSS VL: EIVMTQSPATLSLSPGERATLSCRASQSVSSYLAWYQQKPGQAPRLLIYGAQSRATGIPDRFSGSGSGTDFTLTISRLEPEDFAVYYCQQYDNWPYTFGQGTKLEIK"
class_label = "bin 1"

